Every entry's value here was drawn from ChEMBL document CHEMBL4513216.

test system: Plasmodium falciparum; assay: Screen against P. falciparum Asexual Blood Stage (ABS), at 5uM; format: functional, Dd2; details: tested at 5 uM
Screen size: about 65,000 compounds; about 2,100 (3.2%) showed an effect of 50% or more. The median lay at about -52%. Only a selection was taken, and strong results are over-represented in it overall.
Endpoint: INHIBITION (%)
Give the value, in units of %, as a plain number.

Look at this compound and give its reported INHIBITION. Cc1nc(C2CCCNC2)cc(N(C)CCc2cn[nH]c2)n1 (configuration not stated)
-151

Look at this compound and give its reported INHIBITION. CCN1CCOC(CNCc2ccccc2OCc2cccnc2)C1 (configuration not stated)
28.1

Look at this compound and give its reported INHIBITION. Cc1cnn(CCNCc2ccccc2OCc2ccccn2)c1
67

Look at this compound and give its reported INHIBITION. COCCNc1cccc(C2CCCN2)n1 (configuration not stated)
-86.4

Look at this compound and give its reported INHIBITION. CCCc1cc(NCCN2CCNC2=O)n2nccc2n1
-34.9

Look at this compound and give its reported INHIBITION. CCN1CCOC(CNCc2ccccc2OCc2ccncc2)C1 (configuration not stated)
55.3

Look at this compound and give its reported INHIBITION. c1cc(NCc2ccncc2)nc(C2CCCNC2)c1 (configuration not stated)
-2.22
